Test: AUC in plasma of wild type mouse at 1 mg/kg, ip measured on postnatal day 10
Assay type: ADME, organism-based
quantity.measured: AUC (ng·h/mL)
Your answer should be a plain number; it is taken to be in ng·h/mL.

Name the recorded AUC for Cc1cn2cc(-c3cc(=O)n4cc(N5CCN(C)CC5)ccc4n3)cc(F)c2n1 .
4300

###

Entries and their measured fraction unbound follow.
Assay: Fraction unbound in rat plasma
Format: ADME, cell-free

Completed entries (count: 2):
{"structure.notation": "Cc1cn2cc(-c3cc(=O)n4cc(N5CCN(C)CC5)ccc4n3)cc(F)c2n1", "fraction unbound": 0.16}
{"structure.notation": "CCc1nc(C)cn2nc(-c3cc(=O)n4cc(C5CCN(C)CC5)cc(C)c4n3)cc12", "fraction unbound": 0.17}

Name the recorded fraction unbound for Cc1cn2cc(-c3cc(=O)n4cc(N5CCN(C)CC5)ccc4n3)cc(C)c2n1 .
0.1
